Assay: Bioavailability of curcumin in plasma
Assay type: in vivo
Conditions: rat, 50 mg/kg
quantity name: concentration at 1 h (ng/mL)
Express the result in ng/mL but write the number alone.

Any idea what its concentration at 1 h is? The compound is COc1cc(/C=C/C(=O)CC(=O)/C=C/c2ccc(O)c(OC)c2)ccc1O
24.9

====

Assay: Bioavailability of curcumin in plasma
Type: in vivo
Settings: rat, 50 mg/kg
quantity name: concentration at 2 h (ng/mL)
Express the result in ng/mL but write the number alone.

Any idea what its concentration at 2 h is? The molecule is COc1cc(/C=C/C(=O)CC(=O)/C=C/c2ccc(O)c(OC)c2)ccc1O
4.3

Origin of measurements: patent US12673028B2
